Value source: paper PMC4844176

# Measured Target: UGT1A3 (Homo sapiens, UniProt P35503)
# Assay Overview: Inhibition of aprepitant glucuronidation by UGT specific inhibitors in UGT1A3
# Experimental Parameters: UGT1A3 Supersomes, pH 7.5, probe aprepitant 5 µM, AP-G formation
Endpoint: inhibition at 60 min, 1000 µM (%)
Write it as a number; the unit % goes unstated.

Recorded result, O=C1C(CC[S+]([O-])c2ccccc2)C(=O)N(c2ccccc2)N1c1ccccc1 (stereo not shown) [sulfinpyrazone] , inhibition at 60 min, 1000 µM: 100

---

# System: UGTs in human intestinal microsomes (HIM)
# Assay Overview: in vitro
# Experimental Parameters: pH 7.5
Endpoint: Km at 60 min (µM)
Write it as a number; the unit µM goes unstated.

Kindly note: UGTs in human intestinal microsomes (HIM), C[C@@H](O[C@H]1OCCN(Cc2n[nH]c(=O)[nH]2)[C@H]1c1ccc(F)cc1)c1cc(C(F)(F)F)cc(C(F)(F)F)c1 [aprepitant, Aprepitant] , Km at 60 min value reported: 63

---

# Measured Target: UGT2B7 (Homo sapiens)
# Sequence (P16662 24-529): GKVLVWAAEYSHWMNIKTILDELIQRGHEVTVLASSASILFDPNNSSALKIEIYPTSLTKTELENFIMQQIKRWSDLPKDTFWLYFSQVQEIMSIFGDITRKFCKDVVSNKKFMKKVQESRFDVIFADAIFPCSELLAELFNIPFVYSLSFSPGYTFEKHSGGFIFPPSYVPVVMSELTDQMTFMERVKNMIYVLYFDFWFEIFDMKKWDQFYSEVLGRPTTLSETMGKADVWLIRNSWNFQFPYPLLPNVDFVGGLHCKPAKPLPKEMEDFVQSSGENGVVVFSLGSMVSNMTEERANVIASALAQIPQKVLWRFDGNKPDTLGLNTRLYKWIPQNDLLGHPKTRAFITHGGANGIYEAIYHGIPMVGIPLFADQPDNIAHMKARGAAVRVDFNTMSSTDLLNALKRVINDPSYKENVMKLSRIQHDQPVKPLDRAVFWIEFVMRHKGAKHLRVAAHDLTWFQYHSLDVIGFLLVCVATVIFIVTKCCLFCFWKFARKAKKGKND
# Assay Overview: Inhibition by aprepitant of UGT2B7
# Assay type: in vitro ADME
# Experimental Parameters: UGT2B7 enzyme, pH 7.5, probe 4-MU
Endpoint: inhibition at 1 µM

Kindly note: UGT2B7 (Homo sapiens), C[C@@H](O[C@H]1OCCN(Cc2n[nH]c(=O)[nH]2)[C@H]1c1ccc(F)cc1)c1cc(C(F)(F)F)cc(C(F)(F)F)c1 [aprepitant, Aprepitant] , inhibition at 1 µM value reported: ~17%

---

# Measured Target: UGT1A4 (Homo sapiens, UniProt P22310)
# Sequence (P22310 29-534): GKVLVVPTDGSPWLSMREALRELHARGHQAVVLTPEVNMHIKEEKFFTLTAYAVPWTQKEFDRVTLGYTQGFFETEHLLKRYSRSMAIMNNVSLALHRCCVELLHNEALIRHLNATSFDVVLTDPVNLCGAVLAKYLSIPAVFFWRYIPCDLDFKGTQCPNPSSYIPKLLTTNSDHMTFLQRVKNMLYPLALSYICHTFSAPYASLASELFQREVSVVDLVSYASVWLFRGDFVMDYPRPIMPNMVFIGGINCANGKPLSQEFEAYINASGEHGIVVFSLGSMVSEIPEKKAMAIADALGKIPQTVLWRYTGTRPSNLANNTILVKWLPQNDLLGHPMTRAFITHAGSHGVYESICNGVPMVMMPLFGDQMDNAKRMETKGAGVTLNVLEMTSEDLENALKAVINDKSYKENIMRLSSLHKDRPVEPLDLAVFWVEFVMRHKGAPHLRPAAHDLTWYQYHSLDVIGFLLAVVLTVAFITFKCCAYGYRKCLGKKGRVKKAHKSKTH
# Assay Overview: Inhibition by aprepitant of UGT1A4
# Type: in vitro ADME
# Experimental Parameters: UGT1A4 enzyme, probe imipramine
Endpoint: inhibition at 60 min, 10 µM (%)
Write it as a number; the unit % goes unstated.

Recorded result, C[C@@H](O[C@H]1OCCN(Cc2n[nH]c(=O)[nH]2)[C@H]1c1ccc(F)cc1)c1cc(C(F)(F)F)cc(C(F)(F)F)c1 [aprepitant, Aprepitant] , inhibition at 60 min, 10 µM: 18

---

# Assay Overview: Aqueous solubility of aprepitant
# Assay type: physicochemical
# Experimental Parameters: aqueous medium
Endpoint: solubility

Recorded result, C[C@@H](O[C@H]1OCCN(Cc2n[nH]c(=O)[nH]2)[C@H]1c1ccc(F)cc1)c1cc(C(F)(F)F)cc(C(F)(F)F)c1 [aprepitant, Aprepitant] , solubility: ~250 µM

---

# Measured Target: UniProtKB P35503
# Sequence (P35503 29-534): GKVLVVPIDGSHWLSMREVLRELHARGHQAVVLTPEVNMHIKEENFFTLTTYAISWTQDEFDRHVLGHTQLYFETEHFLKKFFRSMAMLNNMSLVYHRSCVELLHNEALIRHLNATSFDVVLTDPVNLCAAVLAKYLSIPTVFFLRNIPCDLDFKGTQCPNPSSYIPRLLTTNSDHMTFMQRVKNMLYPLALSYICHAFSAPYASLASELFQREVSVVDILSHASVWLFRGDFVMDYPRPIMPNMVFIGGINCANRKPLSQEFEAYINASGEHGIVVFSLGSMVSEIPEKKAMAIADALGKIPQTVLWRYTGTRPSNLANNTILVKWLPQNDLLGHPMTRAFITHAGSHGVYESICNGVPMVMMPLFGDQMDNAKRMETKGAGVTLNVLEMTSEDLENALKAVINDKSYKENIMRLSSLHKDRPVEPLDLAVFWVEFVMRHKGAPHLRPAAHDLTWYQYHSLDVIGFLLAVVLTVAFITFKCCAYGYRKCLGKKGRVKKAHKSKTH
# Assay Overview: in vitro
# Experimental Parameters: UGT1A3 Supersomes, pH 7.5, probe aprepitant […] µM (Km), AP-G formation
Endpoint: inhibition at 60 min, 1000 µM

Recorded result, O=C1C(CC[S+]([O-])c2ccccc2)C(=O)N(c2ccccc2)N1c1ccccc1 (stereo not shown) , inhibition at 60 min, 1000 µM: 100%
